experimentalDetails: Plasma protein binding by equilibrium dialysis
cond: both, Sprague Dawley, rat, plasma, pH 7.4, Individual fraction unbound, rat plasma, Sprague Dawley, male and female, 3.44 uM, Day 2
readoutType: fraction unbound at 6 h, 3.44 uM
Just the number.

Query string: Given the compound COc1cccc2[nH]c(C(=O)N[C@@H](CC(C)C)C(=O)N[C@@H](C[C@@H]3CCNC3=O)C(=O)COP(=O)(O)O)cc12 [PF-07304814] , what is its reported fraction unbound at 6 h, 3.44 uM?
Result string: 0.362

----------
experimentalDetails: Plasma protein binding by equilibrium dialysis
cond: both, Cynomologous, cynomolgus monkey, plasma, pH 7.4, Individual fraction unbound, monkey plasma, Cynomologous, male and female, 3.44 uM, Day 3
readoutType: fraction unbound at 6 h, 3.44 uM
// no unit string in output, number only

Query string: Which measured fraction unbound at 6 h, 3.44 uM value corresponds to COc1cccc2[nH]c(C(=O)N[C@@H](CC(C)C)C(=O)N[C@@H](C[C@@H]3CCNC3=O)C(=O)COP(=O)(O)O)cc12 [PF-07304814] ?
Result string: 0.442

----------
experimentalDetails: Metabolic stability and enzyme kinetics in liver S9 (conversion to PF-00835231)
cond: human, liver S9, pH 7.5, CLintu (unbound CLint)
readoutType: microsomal CLint
Note: a bare number is incomplete; add the unit.

Query string: Look at this molecule and give its reported microsomal CLint. `COc1cccc2[nH]c(C(=O)N[C@@H](CC(C)C)C(=O)N[C@@H](C[C@@H]3CCNC3=O)C(=O)COP(=O)(O)O)cc12`
Result string: 428 µL/min/mg

----------
measuredOn: CYP1A2 (Homo sapiens, UniProt P05177)
Sequence (P05177 whole entry): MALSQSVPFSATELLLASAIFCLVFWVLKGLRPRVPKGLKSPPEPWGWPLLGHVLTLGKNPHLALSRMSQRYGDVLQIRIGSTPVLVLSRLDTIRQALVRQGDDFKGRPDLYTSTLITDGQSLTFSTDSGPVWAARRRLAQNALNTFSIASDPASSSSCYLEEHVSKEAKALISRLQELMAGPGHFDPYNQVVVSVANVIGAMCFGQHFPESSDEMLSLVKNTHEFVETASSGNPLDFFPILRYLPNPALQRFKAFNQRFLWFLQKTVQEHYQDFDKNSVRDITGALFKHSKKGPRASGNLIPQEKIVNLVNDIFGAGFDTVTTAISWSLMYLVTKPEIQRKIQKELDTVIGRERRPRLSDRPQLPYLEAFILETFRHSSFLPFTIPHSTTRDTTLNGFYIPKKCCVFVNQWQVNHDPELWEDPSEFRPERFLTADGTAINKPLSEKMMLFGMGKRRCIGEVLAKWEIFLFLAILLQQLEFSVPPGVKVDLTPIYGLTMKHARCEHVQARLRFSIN
experimentalDetails: Reversible CYP inhibition in human liver microsomes
cond: Phenacetin O-dealkylation; 30-minute preincubation (T30)
pIC50: −log10 of the molar value.
readoutType: pIC50

Query string: Quick check: pIC50 of COc1cccc2[nH]c(C(=O)N[C@@H](CC(C)C)C(=O)N[C@@H](C[C@@H]3CCNC3=O)C(=O)COP(=O)(O)O)cc12 [PF-07304814] ?
Result string: < 4.00

----------
experimentalDetails: Metabolic stability and enzyme kinetics in liver S9 (conversion to PF-00835231)
cond: human, liver S9, pH 7.5, CLint total, Human liver S9, CLint total = (vmax / KM) + CL
readoutType: microsomal CLint (µL/min/mg)
Quick note: give the figure in µL/min/mg, leave out the unit.

Query string: What value of measured microsomal CLint is listed for `COc1cccc2[nH]c(C(=O)N[C@@H](CC(C)C)C(=O)N[C@@H](C[C@@H]3CCNC3=O)C(=O)COP(=O)(O)O)cc12` ?
Result string: 381

----------
Test system: CYP3A4/5
experimentalDetails: in vitro
cond: human, microsomes, pH 7.4, Percent of Control Activity, CYP 3A4/5 (tst), 43.8 µM, 30-Minute Preincubation
readoutType: activity at 43.8 µM (%)
Only the number, expressed in %, is required.

Query string: Query: activity at 43.8 µM; subject: `COc1cccc2[nH]c(C(=O)N[C@@H](CC(C)C)C(=O)N[C@@H](C[C@@H]3CCNC3=O)C(=O)CO)cc12`
Result string: 55.5

----------
measuredOn: CYP2C9 (Homo sapiens)
Sequence (P11712 whole entry): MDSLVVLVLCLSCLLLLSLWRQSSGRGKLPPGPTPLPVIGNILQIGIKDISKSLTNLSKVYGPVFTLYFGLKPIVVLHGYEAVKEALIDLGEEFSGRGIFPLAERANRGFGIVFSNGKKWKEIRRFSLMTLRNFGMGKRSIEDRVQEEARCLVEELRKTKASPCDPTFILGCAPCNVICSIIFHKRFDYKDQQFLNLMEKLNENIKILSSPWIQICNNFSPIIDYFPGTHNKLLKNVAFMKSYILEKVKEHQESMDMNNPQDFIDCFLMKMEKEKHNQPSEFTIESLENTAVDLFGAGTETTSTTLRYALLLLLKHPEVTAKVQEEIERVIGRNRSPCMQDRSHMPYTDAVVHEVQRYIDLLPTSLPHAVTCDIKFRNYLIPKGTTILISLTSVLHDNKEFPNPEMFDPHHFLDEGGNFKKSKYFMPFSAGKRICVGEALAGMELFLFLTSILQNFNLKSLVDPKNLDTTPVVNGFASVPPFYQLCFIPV
experimentalDetails: Reversible CYP inhibition in human liver microsomes
cond: human, microsomes, pH 7.4
readoutType: IC50

Query string: Param item = COc1cccc2[nH]c(C(=O)N[C@@H](CC(C)C)C(=O)N[C@@H](C[C@@H]3CCNC3=O)C(=O)CO)cc12 [PF-00835231] ; retrieve measured IC50.
Result string: > 200 µM
